The reported numbers originate from the RNAGym collection of RNA variant scans (doi:10.7554/elife.80360).

B1: HDV Ribozyme (parent)
chain: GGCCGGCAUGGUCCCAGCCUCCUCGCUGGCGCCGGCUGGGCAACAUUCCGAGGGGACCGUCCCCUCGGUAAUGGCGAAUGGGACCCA

# Variants of: B1
# measurement.description: self-cleavage, relative activity (ratio to wild type); higher = more cleavage; co-transcriptional
Param threshold (0.4) applies to self-cleavage; output TRUE when value >= threshold, FALSE when value < threshold.

GGCCGGCAUGGUCCCAGCCUCCUCGCUGGCGCCGGCCGGGCAACAUUCCGAGGGGACCGUCCCCUCGGUAAUGGCAAAUGGGACCCA [U37C G76A]: TRUE
GGCCGGCAUGGUCCCAGCCUCCUCGCUGGCGCCGGCUGGGCAACAUUCCGAGUGGACCGCCCCCUCGGUAAUGGCGAAUGGGACCCA [G53U U60C]: TRUE
GGCCGGCAUGGUCCCAGCCUCCUCGCUGGCGCCGGCUGGGCACCAUUCCGAGGGUACCGUCCCCUCGGUAAUGGCGAAUGGGACCCA [A43C G55U]: TRUE
GGCCGGCAUGGUCCCAGCCUCCUCGCUGGCGCCGGCUGGGCAACAUUCCGAGGGGACCGUCCACUCGGUAAUGGCCAAUGGGACCCA [C63A G76C]: TRUE
GGCCGGCAUGGUCCCAGCCUCCUCGCAGGCGCCGGCUGGGCAACAUUCCGAGGGGACCAUCCCCUCGGUAAUGGCGAAUGGGACCCA [U27A G59A]: TRUE
GGCCGGCAUGGUCCCUGCCUCCUCGCUGGCGCCGGCUGGGCAACAUUCCGAGGGGACCGUCCCCUCCGUAAUGGCGAAUGGGACCCA [A16U G67C]: TRUE
GGCCGGCAUGGACCCAGCCUCCUCUCUGGCGCCGGCUGGGCAACAUUCCGAGGGGACCGUCCCCUCGGUAAUGGCGAAUGGGACCCA [U12A G25U]: FALSE
GGCCGGCAUGGUCCCAGCCUCCACGCUGGCGCCGGCUGGGCAACAUUCCGAGGGAACCGUCCCCUCGGUAAUGGCGAAUGGGACCCA [U23A G55A]: TRUE
GGCCGGCAUGGUCCCAGCCUCCUCGCUGGCGCCUGCUGGGCAACAUUCCGAGGGGACCGUCCCCUCGGUUAUGGCGAAUGGGACCCA [G34U A70U]: FALSE
GGCCGGCAUGGUACCAGCCUCCUCGCUGGCGCCGGCUGGGCAACAUUCCGAGGGGACCGCCCCCUCGGUAAUGGCGAAUGGGACCCA [C13A U60C]: FALSE
GGCCGGCAUGGUCCCAGCCUCCUCGCUGGCGCCUGCUGGGCAAUAUUCCGAGGGGACCGUCCCCUCGGUAAUGGCGAAUGGGACCCA [G34U C44U]: FALSE
GGCCGGCAUGGUCCCAGCCUCCUCGCUGGCGCCGGCUGGGCAACAUUCCGAGGGGACCGUCCCCUCGGUCAUGGCGAAUGAGACCCA [A70C G81A]: TRUE
GGCCGGCAUGGUCCCAGCCUCAUCGCUGGCGCCGGCUGGGCAACAUUCCGAGGGGACCGUCUCCUCGGUAAUGGCGAAUGGGACCCA [C22A C62U]: FALSE
GGCCGGCAUGGUCCCAGCCUCCUGGCUGGCGCCUGCUGGGCAACAUUCCGAGGGGACCGUCCCCUCGGUAAUGGCGAAUGGGACCCA [C24G G34U]: FALSE
GGCCGGGAUGGUCCCAGCCUCCUCGCUGGCGCCGGCUGGGCAACAUUCCGAGGGGACCGUCUCCUCGGUAAUGGCGAAUGGGACCCA [C7G C62U]: FALSE
GGCCUGCAUGGUCCCAGCCUCCUCGCUGGCGCCGGCUGGGCAACAUUCCGAGGGGACCGUCCCCUCGGCAAUGGCGAAUGGGACCCA [G5U U69C]: FALSE
GGCCGGCAUGGUCCCAGCCUCCUCGCUGGCGCCGUCUGGGCAACAUUCCGAGGGGACCGUCCCCUCGGUAAUGGCGAAUGGUACCCA [G35U G82U]: FALSE
GGCCGGCAUGGUCCCAGCCUCCUCGCUGGCGCCGGCUGGGCAACAUUCCGAGGGGACCGUCCAGUCGGUAAUGGCGAAUGGGACCCA [C63A C64G]: TRUE
GGCCGGCAUGGUCCCAGCCUCCACGCUGGCGCCGGCGGGGCAACAUUCCGAGGGGACCGUCCCCUCGGUAAUGGCGAAUGGGACCCA [U23A U37G]: TRUE
GGCCGGCAUGGUCCCAGCCUCCUCGCUGGCACCGGCUGGGCAACAUUCCUAGGGGACCGUCCCCUCGGUAAUGGCGAAUGGGACCCA [G31A G50U]: TRUE
GGCCGACAUGGUCCCAGCCUCCUCGCUGGCGCCGGCUGGGCAACAUUCCGAGGGCACCGUCCCCUCGGUAAUGGCGAAUGGGACCCA [G6A G55C]: TRUE
GGCCGGCAUGGUCCCAGCCUCCUCGCUGGCGCCGGCUGGGCAACAUUCCGAGGGGACCGUCCCCUCGGUAGUGGCGAAUGCGACCCA [A71G G81C]: FALSE
GGCCGGCAUGGUCCCAGCCUCCUCGCUGGCGCCCGCUGGGCAACAUUCCGAGGGGACCGUCCCCUUGGUAAUGGCGAAUGGGACCCA [G34C C66U]: FALSE
GGCCGGCAGGGACCCAGCCUCCUCGCUGGCGCCGGCUGGGCAACAUUCCGAGGGGACCGUCCCCUCGGUAAUGGCGAAUGGGACCCA [U9G U12A]: TRUE
GGCCGGCAUGGUCCCAGCCUCUUCGCUGGCGCCGGCUGGGCAACACUCCGAGGGGACCGUCCCCUCGGUAAUGGCGAAUGGGACCCA [C22U U46C]: FALSE
